Measured pIC50 by item
Target: NaV1.8 (Homo sapiens, UniProt Q9Y5Y9)
Assay: Activity against NaV1.8 channel (Table 4)
Assay type: cell-based
pIC50: −log10 of the molar value.
test-readout: pIC50

- compound: "CC(C)COC(=O)N1CCN(c2nc(-c3ccccc3C(F)F)cc3ccccc23)CC1 [Compound 4]"
  test-readout: "pIC50"
  observed: "< 4.82"
- compound: "CC(C)COC(=O)N1CCN(c2nc(-c3ccccc3O)cc3ccccc23)CC1 [Compound 3]"
  test-readout: "pIC50"
  observed: "< 4.82"
- compound: "CC(C)COC(=O)NC1CCN(c2nc(-c3ccccc3O)cc3ccccc23)CC1 [Compound 1]"
  test-readout: "pIC50"
  observed: "4.82 to 5.00"
